Origin of values: patent US20100036088A1

- Tested on: human erythrocytes
- experimental details: Hemolysis assay
- Format: cell-based
- conditions: red cells of human, 1 h
Square brackets hold non-standard residues; d marks the D form. Peptide text beside a SMILES is read from it. Nspe = C[C@H](NCC(=O)O)c1ccccc1; Nlys = NCCCCNCC(=O)O
property label: HD50 (50% hemolytic dose)

[ask] Which measured HD50 (50% hemolytic dose) value corresponds to C[C@@H](c1ccccc1)N(CC(N)=O)C(=O)CN(C(=O)CN(CCCCN)C(=O)CN(C(=O)CN(C(=O)CNCCCCN)[C@@H](C)c1ccccc1)[C@@H](C)c1ccccc1)[C@@H](C)c1ccccc1 [16 mer, H-(Nlys-Nspe-Nspe)2-NH2] (H-[Nlys][Nspe][Nspe][Nlys][Nspe][Nspe]-NH2) ?
[reply] >220/>220 μM
